The origin of these recorded values is ChEMBL document CHEMBL3244375.

# PROTOCOL: Toxicity in mouse
# Type: organism-based
# RUN_CONDITIONS: in vivo

{"columns": ["COMPOUND", "RESULT_UNIT", "LD50"],
 "data": [
  ["CCCCC(Sc1cc(C(C)(C)C)c(O)c(C(C)(C)C)c1)C(=O)O (racemic)", "mg/kg", 5000]
]}

###

# System: Rattus norvegicus
# PROTOCOL: Toxicity in Sprague-Dawley rat assessed as increase in liver weight at 0.25 % compound administered in diet for 14 days relative to control
# Format: organism-based
# RUN_CONDITIONS: in vivo, po, 336 h
Quick reference for Activity among some compounds
READOUT_KIND: Activity (%)

{"columns": ["COMPOUND", "READOUT_KIND", "NUMERIC_VALUE"],
 "data": [
  ["CC(Sc1cc(C(C)(C)C)c(O)c(C(C)(C)C)c1)C(=O)O (stereo not given)", "Activity", 30],
  ["CCCCC(Sc1cc(C(C)(C)C)c(O)c(C(C)(C)C)c1)C(=O)O (racemic)", "Activity", 20],
  ["CCC(C)(Sc1cc(C(C)(C)C)c(O)c(C(C)(C)C)c1)C(=O)O (stereo not given)", "Activity", 40],
  ["CCOC(=O)C(CC)Sc1cc(C(C)(C)C)c(O)c(C(C)(C)C)c1 (stereo not given)", "Activity", 10],
  ["CC(C)(Sc1cc(C(C)(C)C)c(O)c(C(C)(C)C)c1)Sc1cc(C(C)(C)C)c(O)c(C(C)(C)C)c1", "Activity", 0]
]}

###

# PROTOCOL: Retardation factor of the compound by thin layer chromatography
# Format: physicochemical
Assign class by deltaRm: not lower than 0.5 means Criterion met; lower than 0.5 means Criterion not met.

{"columns": ["MOLECULE", "CLASS_ASSIGNMENT"],
 "data": [
  ["CCCCC(Sc1ccccc1)C(=O)O (centres undefined)", "Criterion not met"],
  ["CCCCC(Sc1ccc(C)cc1)C(=O)O (centres undefined)", "Criterion not met"],
  ["CCCCC(Sc1cc(C2CCCCC2)c(O)c(C2CCCCC2)c1)C(=O)O (centres undefined)", "Criterion met"],
  ["CCCCC(Sc1cc(C2CCCC2)c(O)c(C2CCCC2)c1)C(=O)O (centres undefined)", "Criterion met"],
  ["CCCCC(Sc1cc(C(C)(C)C)cc(C(C)(C)C)c1)C(=O)O (centres undefined)", "Criterion met"],
  ["CCCCC(Sc1cc(C(C)(C)C)c(O)c(C(C)(C)C)c1)C(=O)O (racemic)", "Criterion met"],
  ["CCCCC(Sc1ccc(Cl)cc1)C(=O)O (centres undefined)", "Criterion not met"],
  ["CCCCC(Sc1ccc(OC)cc1)C(=O)O (centres undefined)", "Criterion not met"]
]}

###

# Tested on: Rattus norvegicus
# PROTOCOL: Hypolipidemic activity in Sprague-Dawley rat assessed as reduction in serum cholesterol level at 0.125 % compound administered in diet for 14 days relative to control
# Assay type: functional
# Set-up: scale not given: the % may be the effect or the level left
Output condition met for records whose Activity is lower than -20%, condition not met for records at or above -20%.

{"columns": ["COMPOUND", "CLASS_ASSIGNMENT"],
 "data": [
  ["CCCCC(Sc1ccc(Cl)cc1)C(=O)O (configuration not stated)", "condition not met"],
  ["CCC(Oc1cc(C(C)(C)C)c(O)c(C(C)(C)C)c1)C(=O)O (configuration not stated)", "condition not met"],
  ["CCCCC(Sc1cc(C(C)(C)C)cc(C(C)(C)C)c1)C(=O)O (configuration not stated)", "condition met"],
  ["CCCCCCC(C)(Sc1cc(C(C)(C)C)c(O)c(C(C)(C)C)c1)C(=O)O (configuration not stated)", "condition not met"],
  ["CCCC(C)(Sc1cc(C(C)(C)C)cc(C(C)(C)C)c1)C(=O)O (configuration not stated)", "condition met"],
  ["CCCCC(Sc1ccc(OC)cc1)C(=O)O (configuration not stated)", "condition not met"]
]}
